assay: Cmax in BALB/c mouse at 10 mg/kg, iv by LC-MS analysis; assay type: ADME, organism-based; set-up: dose 10 mg/kg, route intravenous; conditions: in vivo
measured-metric: Cmax (ng/mL)
Number in ng/mL, nothing else.

Consider the compound shown here: "O=C(NCc1cccc(Cn2cnc3ccccc32)c1)c1cc2ccccc2[nH]1" What is its recorded Cmax? 2680

====

Reported viability at 48 h, 1 µM values are given for each entry in this list.
test: Cytotoxicity against human A375 cells assessed as cell viability at 1 uM measured after 48 hrs by MTT assay relative to control; type: cell-based, A-375; conditions: read-out: Activity
Supply the numeric figure in %, leaving out any unit text.

Given the entry NS(=O)(=O)NCCNc1nonc1C(=NO)Nc1ccc(F)c(Br)c1 [EPACADOSTAT] , report its measured viability at 48 h, 1 µM. 97

====

target: Indoleamine 2,3-dioxygenase 1 (Homo sapiens, UniProt P14902); assay: Inhibition of IDO1 in IFNgamma-stimulated human HeLa cells assessed as reduction in L-Kyn level measured after 48 hrs by HPLC analysis; type: cell-based
Sequence (P14902 whole entry): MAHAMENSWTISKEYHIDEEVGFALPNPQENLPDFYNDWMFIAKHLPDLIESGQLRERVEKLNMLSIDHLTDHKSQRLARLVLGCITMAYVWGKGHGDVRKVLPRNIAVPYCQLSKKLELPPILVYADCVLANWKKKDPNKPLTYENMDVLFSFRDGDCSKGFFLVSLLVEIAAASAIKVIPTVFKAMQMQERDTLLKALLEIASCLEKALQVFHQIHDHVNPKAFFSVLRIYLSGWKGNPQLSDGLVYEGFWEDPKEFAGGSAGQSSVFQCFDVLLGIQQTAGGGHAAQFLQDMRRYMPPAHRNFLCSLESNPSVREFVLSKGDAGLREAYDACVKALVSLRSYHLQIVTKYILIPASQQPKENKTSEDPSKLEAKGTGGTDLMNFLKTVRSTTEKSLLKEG
measured-metric: IC50 (nM)
Write the value in nM as a bare number.

Field request: IC50 | item: "O=C(NCc1cccc(Cn2cnc3ccccc32)c1)c1cc(Br)c[nH]1" 64

====

molecular target: Indoleamine 2,3-dioxygenase 1 (Homo sapiens); experiment: Inhibition of IDO1 in IFNgamma-stimulated human A375 cells assessed as reduction in L-Kyn level measured after 48 hrs by HPLC analysis
measured-metric: pIC50
The meaning of pIC50 here: minus log10 of the concentration in molar units.

The cases that follow already have their pIC50 on record.
O=C(NCc1cccc(Cn2cnc3ccccc32)c1)c1ccc(F)cc1    6.02
O=C(NCc1cccc(Cn2cnc3ccccc32)c1)c1nc2ccccc2[nH]1    6.39
Cc1ccc2[nH]c(C(=O)NCc3cccc(Cn4cnc5ccccc54)c3)cc2c1    6.20

Can you share its pIC50? I mean this compound: "O=C(NCc1cccc(Cn2cnc3ccccc32)c1)c1ccc(Cl)cc1" 6.32

Check "O=C(NCc1cccc(Cn2cnc3ccccc32)c1)c1ccc(Br)cc1" too. 6.87

====

experiment: Inhibition of CYP450 in rat liver microsomes assessed as reduction in aminopyrine N-demethylase activity preincubated for 3 mins followed by NADPH addition and measured after 15 mins by iodometric titration method; type: ADME
measured-metric: IC50 (µM)
Numbers only; they are read as µM.

Param item = "O=C(NCc1cccc(Cn2cnc3ccccc32)c1)c1cc(Br)c[nH]1" ; retrieve measured IC50. 67.7

====

biological target: Indoleamine 2,3-dioxygenase 1 (Homo sapiens, UniProt P14902); test: Inhibition of IDO1 in IFNgamma-stimulated human DAN-G cells assessed as reduction in L-Kyn level measured after 48 hrs by HPLC analysis; type: cell-based
measured-metric: IC50 (nM)
Respond with the bare value in nM.

Example compounds with recorded IC50:
O=C(NCc1cccc(Cn2cnc3ccccc32)c1)c1cc2ccccc2[nH]1    140
O=C(NCc1cccc(Cn2cnc3ccccc32)c1)c1cc(Br)c[nH]1    605

We next turn to a different compound, shown below.
Query: IC50; subject: "N#Cc1ccc(C(=O)NCc2cccc(Cn3cnc4ccccc43)c2)cc1" 1940

====

biological target: Tryptophan 2,3-dioxygenase (Mus musculus, UniProt P48776); test: Inhibition of mouse TDO transfected in P815 cells assessed as reduction in L-Kyn level measured after 16 hrs by HPLC analysis
Sequence (P48776 whole entry): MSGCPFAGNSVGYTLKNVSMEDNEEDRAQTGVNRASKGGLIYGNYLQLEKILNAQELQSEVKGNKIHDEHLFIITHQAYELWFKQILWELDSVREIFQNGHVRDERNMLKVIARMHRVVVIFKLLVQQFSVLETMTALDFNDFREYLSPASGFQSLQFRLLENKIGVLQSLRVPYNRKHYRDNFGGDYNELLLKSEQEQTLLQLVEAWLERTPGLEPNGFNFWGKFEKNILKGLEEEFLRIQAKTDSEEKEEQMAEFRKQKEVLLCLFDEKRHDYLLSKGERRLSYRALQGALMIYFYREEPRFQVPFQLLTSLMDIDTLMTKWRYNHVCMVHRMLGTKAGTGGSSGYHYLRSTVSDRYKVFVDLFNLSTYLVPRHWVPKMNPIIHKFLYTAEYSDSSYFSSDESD
measured-metric: pIC50
Interpret pIC50 as the negative base-10 log of the concentration measured in mol/L.

Guide cases for pIC50, answers given:
O=C(NCc1cccc(Cn2cnc3ccccc32)c1)c1cc2ccccc2[nH]1    4.88
O=C(NCc1cccc(Cn2cnc3ccccc32)c1)c1cc(Br)c[nH]1    5.26

Now take the following compound into account.
May I ask what pIC50 has been recorded for "N#Cc1ccc(C(=O)NCc2cccc(Cn3cnc4ccccc43)c2)cc1" ? 4.49

====

biological target: Indoleamine 2,3-dioxygenase 1 (Homo sapiens); experiment: Inhibition of IDO1 in IFNgamma-stimulated human A375 cells assessed as reduction in L-Kyn level at 1 uM measured after 48 hrs by HPLC analysis relative to control
Sequence (P14902 whole entry, looked up): as the sequence (P14902 whole entry) above
measured-metric: inhibition

O=C(Cc1ccc2c(c1)OCO2)NCc1cccc(Cn2cnc3ccccc32)c1    5%
O=C(NCc1cccc(Cn2cnc3ccccc32)c1)c1cccs1    62%
Cc1cc(C(=O)NCc2cccc(Cn3cnc4ccccc43)c2)ccc1C#N    44%
O=C(NCc1cccc(Cn2cnc3ccccc32)c1)c1cc(Br)c[nH]1    96%
O=C(CNC(=O)c1ccccc1)NCc1cccc(Cn2cnc3ccccc32)c1    13%
O=C(NCc1cccc(Cn2cnc3ccccc32)c1)c1ccc[nH]1    72%
O=C(NCc1cccc(Cn2ccc3ccccc32)c1)c1cc(Br)c[nH]1    0%
O=C(NCc1cccc(Cn2cnc3ccccc32)c1)c1nc2ccccc2[nH]1    83%
O=C(OCc1cccc(Cn2cnc3ccccc32)c1)c1cc(Br)c[nH]1    0%
O=C(CCN1CCOCC1)NCc1cccc(Cn2cnc3ccccc32)c1    0%

Attention now turns to another entry.
Suppose we examine the molecule "N#Cc1ccc(C(=O)NCc2cccc(Cn3cnc4ccccc43)c2)cc1F" ; what inhibition value has been reported? 32%

====

target: Indoleamine 2,3-dioxygenase 1 (Homo sapiens); test: Binding affinity to NT650-NHS fluorophore-labeled recombinant human N-terminal His-tagged IDO1 expressed in Escherichia coli measured after 10 mins by microscale thermophoresis assay
measured-metric: pKd
The read-out pKd is expressed as -log10 of concentration in moles per litre.

Return pKd measured with Indoleamine 2,3-dioxygenase 1 (Homo sapiens) given this molecule: "O=C(NCc1cccc(Cn2cnc3ccccc32)c1)c1cc(Br)c[nH]1" 6.26

====

biological target: Indoleamine 2,3-dioxygenase 1 (Homo sapiens); test: Inhibition of IDO1 in IFNgamma-stimulated human LXF-289 cells assessed as reduction in L-Kyn level measured after 48 hrs by HPLC analysis
measured-metric: IC50 (nM)
Give the quantity in nM, number only.

Consider the molecule shown here: "O=C(NCc1cccc(Cn2cnc3ccccc32)c1)c1cc(Br)c[nH]1" What is its recorded IC50? 14

====

test: Inhibition of CYP3A in rat liver microsomes assessed as reduction in aminopyrine N-demethylase activity preincubated for 3 mins followed by NADPH addition and measured after 15 mins by iodometric titration method; type: ADME
measured-metric: IC50

For CC(=O)N1CCN(c2ccc(OCC3COC(Cn4ccnc4)(c4ccc(Cl)cc4Cl)O3)cc2)CC1 (stereo unspecified) [KETOCONAZOLE] , what is its reported IC50? 6.4 µM

====

The following compounds are shown together with reported viability at 48 h, 1 µM values.
assay: Cytotoxicity against human A375 cells assessed as cell viability at 1 uM measured after 48 hrs by MTT assay relative to control; assay type: cell-based, A-375; conditions: read-out: Activity
Give a bare numeral; the unit % is implied.

Examples with their reported viability at 48 h, 1 µM follow.
Cc1cc(C(=O)NCc2cccc(Cn3cnc4ccccc43)c2)ccc1C#N    94
O=C(NCc1cccc(Cn2cnc3ccccc32)c1)c1ccccc1    98

What does the data say about its viability at 48 h, 1 µM? Entry: "O=C(NCc1cccc(Cn2cnc3ccccc32)c1)c1ccc(Br)cc1" 96

Note, next up: "CC(=O)NCC(=O)NCc1cccc(Cn2cnc3ccccc32)c1" 100

Query "O=C(NCc1cccc(Cn2cnc3ccccc32)c1)c1cc2cc(O)ccc2[nH]1" next 99

Could you do the same for "N#Cc1ccc(C(=O)NCc2cccc(Cn3cnc4ccccc43)c2)cc1F" , please? 100

What do you have for "O=C(OCc1cccc(Cn2cnc3ccccc32)c1)c1cc(Br)c[nH]1" ? 100

How about "O=C(NCc1cccc(Cn2cnc3ccccc32)c1)c1cc2ccccc2[nH]1" ? 99

Another compound to check: "O=C(NCc1cccc(Cn2cnc3ccccc32)c1)c1cccs1" 98

Thanks! And "O=C(NCc1cccc(Cn2cnc3ccccc32)c1)c1ccc(Cl)cc1" ? 96

Request: "O=C(NCc1cccc(Cn2cnc3ccccc32)c1)c1nc2ccccc2[nH]1" 100

Now the compound "N#Cc1ccc(C(=O)NCc2cccc(Cn3cnc4ccccc43)c2)c(F)c1" 99

Now this one: "O=C(NCc1cccc(Cn2cnc3ccccc32)c1)c1cc2ccccc2o1" 100

Then what about the compound "O=C(NCc1cccc(Cn2cnc3ccccc32)c1)c1ccc(F)cc1" ? 89

Now consider "COc1ccc2[nH]c(C(=O)NCc3cccc(Cn4cnc5ccccc54)c3)cc2c1" and answer again. 55

Also check "Cc1ccc2[nH]c(C(=O)NCc3cccc(Cn4cnc5ccccc54)c3)cc2c1" 99

Another compound: "O=C(NCc1cccc(Cn2cnc3ccc(Br)cc32)c1)c1cc(Br)c[nH]1" 99

One more compound: "O=C(CCN1CCOCC1)NCc1cccc(Cn2cnc3ccccc32)c1" 100

Next: "O=C(Cc1ccc2c(c1)OCO2)NCc1cccc(Cn2cnc3ccccc32)c1" 96

Also check "Cc1ccc(C(=O)NCc2cccc(Cn3cnc4ccccc43)c2)cc1" 94

Field entry: "O=C(NCc1cccc(Cn2ccc3ccccc32)c1)c1cc(Br)c[nH]1" 100

Each recorded value in this set is attributed to ChEMBL document CHEMBL4354865.
